Would you mind telling me the reported pIC50 of each entry?
# target.system: hTRPA1 (Homo sapiens (Human))
# Sequence (O75762 whole entry): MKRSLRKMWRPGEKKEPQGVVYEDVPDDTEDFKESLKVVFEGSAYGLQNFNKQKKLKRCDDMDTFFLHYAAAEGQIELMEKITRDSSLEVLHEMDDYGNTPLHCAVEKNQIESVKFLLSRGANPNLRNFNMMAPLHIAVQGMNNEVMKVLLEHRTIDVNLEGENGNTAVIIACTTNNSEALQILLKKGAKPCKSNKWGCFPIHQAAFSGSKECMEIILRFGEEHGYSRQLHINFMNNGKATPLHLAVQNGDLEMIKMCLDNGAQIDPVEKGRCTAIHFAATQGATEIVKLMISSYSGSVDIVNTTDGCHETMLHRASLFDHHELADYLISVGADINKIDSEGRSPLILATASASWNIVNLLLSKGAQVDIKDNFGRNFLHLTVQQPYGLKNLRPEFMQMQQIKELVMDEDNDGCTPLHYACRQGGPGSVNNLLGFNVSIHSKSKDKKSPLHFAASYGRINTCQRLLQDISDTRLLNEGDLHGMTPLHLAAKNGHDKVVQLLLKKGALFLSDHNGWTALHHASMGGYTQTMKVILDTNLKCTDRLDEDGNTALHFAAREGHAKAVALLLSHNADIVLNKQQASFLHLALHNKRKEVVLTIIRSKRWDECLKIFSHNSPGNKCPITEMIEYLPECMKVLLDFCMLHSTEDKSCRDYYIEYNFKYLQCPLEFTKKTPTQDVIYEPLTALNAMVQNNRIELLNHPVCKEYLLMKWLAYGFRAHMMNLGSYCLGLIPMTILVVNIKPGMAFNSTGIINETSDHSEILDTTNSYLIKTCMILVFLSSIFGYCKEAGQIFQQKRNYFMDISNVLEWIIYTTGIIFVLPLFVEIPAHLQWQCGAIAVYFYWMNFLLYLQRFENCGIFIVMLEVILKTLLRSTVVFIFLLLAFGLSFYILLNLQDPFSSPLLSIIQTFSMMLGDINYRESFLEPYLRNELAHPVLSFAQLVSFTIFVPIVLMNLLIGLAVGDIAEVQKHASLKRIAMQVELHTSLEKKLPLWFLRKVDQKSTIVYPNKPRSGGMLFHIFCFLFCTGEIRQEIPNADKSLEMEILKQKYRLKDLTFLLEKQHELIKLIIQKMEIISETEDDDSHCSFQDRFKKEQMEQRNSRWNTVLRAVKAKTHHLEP
# test.details: Dose response calcium flux assay (FLIPR), ChanTest hTRPA1-CHO stably transfected cell line
# Format: cell-based
# test.settings: CHO-K1 Tet-On human TRPA1 cells, cinnamaldehyde agonist (final 100 uM)
Please keep in mind that pIC50 is minus log10 of the molar concentration; only the number is needed.

Asked: Query (compound): CN(C(C)(C)C(=O)NCc1cccc(-c2ccc(C(F)(F)F)cc2)c1)S(=O)(=O)c1ccc(F)cc1 [Example 7] ; field requested: pIC50
Given back: 6.10

Asked: Query (compound): CC(C)N(CC(=O)NCc1cccc(-c2ccc(C(F)(F)F)cn2)c1)S(=O)(=O)c1cccc(F)c1 [Example 50] ; field requested: pIC50
Given back: 7.10

Asked: Query (compound): CCN(CC(=O)NCc1cccc(-c2ccc(C(F)(F)F)cn2)c1)S(=O)(=O)c1ccc(F)cc1 [Example 42] ; field requested: pIC50
Given back: 7.08

Asked: Query (compound): O=C(NCc1cccc(-c2ccc(C(F)(F)F)cc2)c1)C(NS(=O)(=O)c1ccc(F)cc1)C1CC1 (stereo not shown) [Example 24] ; field requested: pIC50
Given back: 5.99

Asked: Query (compound): CCN(CC(=O)NCc1ccc(-c2ccc(C(F)(F)F)cc2)cc1)S(=O)(=O)c1ccc(F)cc1 [Example 17] ; field requested: pIC50
Given back: 5.32

Asked: Query (compound): CN(CC(=O)NCc1ccc(-c2ccc(C(F)(F)F)cc2)cc1)S(=O)(=O)c1ccc(F)cc1 [Example 10] ; field requested: pIC50
Given back: 5.32

Asked: Query (compound): COC[C@@H](C(=O)NCc1cccc(-c2ccc(C(F)(F)F)cc2)c1)N(C)S(=O)(=O)c1ccc(F)cc1 [Example 52] ; field requested: pIC50
Given back: 7.01

* * *

# target.system: UniProt O75762
# test.details: Dose response calcium flux assay (FLIPR), ChanTest hTRPA1-CHO stably transfected cell line
# Assay type: cell-based
# test.settings: CHO-K1 Tet-On human TRPA1 cells, cinnamaldehyde agonist (final 100 uM)
# Experimental: IC50 Determinations of Exemplified Compounds Dose Response Assay: Chan Test hTRPA1-CHO Stably Transfected Cell Line CHO-K1 Tet-On_HOMSA_TRPA1_Clone_20 Chinese Hamster Ovary cells, inducible expression […] After incubation, both the cell and compound plates were brought to the FLIPR and 20 ul of the diluted compounds/antagonist/bk were transferred to the cell plates by the FLIPR. […] Responses (increase in peak fluorescence) in each well following agonist addition was determined. […]
Note to self: IC50 under 100 nM means YES, ties and anything higher get NO.

Asked: Would you kindly verify if IC50 of CN(CC(=O)NCc1cc(F)cc(-c2ccc(C(F)(F)F)cc2)c1)S(=O)(=O)c1ccc(F)cc1 is strictly less than 100 nM?
Given back: NO

Asked: Would you kindly verify if IC50 of CN(CC(=O)NCc1cccc(-c2ccc(C(F)(F)F)cc2)c1)S(=O)(=O)c1ccc(F)cc1 is strictly less than 100 nM?
Given back: YES

Asked: Would you kindly verify if IC50 of C[C@H](C(=O)NCc1cc(-c2ccc(C(F)(F)F)cc2)ncn1)N(C)S(=O)(=O)c1ccc(F)cc1 is strictly less than 100 nM?
Given back: YES

Asked: Would you kindly verify if IC50 of CC(C)N(CC(=O)NCc1cc(-c2ccc(C(F)(F)F)nc2)ncn1)S(=O)(=O)c1ccc(F)cc1 is strictly less than 100 nM?
Given back: NO

Asked: Would you kindly verify if IC50 of CC(O)CN(CC(=O)NCc1cccc(-c2ccc(C(F)(F)F)cc2)c1)S(=O)(=O)c1ccc(F)cc1 (stereo not drawn) is strictly less than 100 nM?
Given back: NO

Asked: Would you kindly verify if IC50 of CCN(CC(=O)NCc1ccc(OC)c(-c2ccc(C(F)(F)F)cc2)c1)S(=O)(=O)c1ccc(F)cc1 is strictly less than 100 nM?
Given back: NO

Asked: Would you kindly verify if IC50 of CC(C)N(CC(=O)NCc1cc(-c2ccc(C(F)(F)F)cc2)ncn1)S(=O)(=O)c1ccc(Cl)nc1 is strictly less than 100 nM?
Given back: YES

Asked: Would you kindly verify if IC50 of CCN(CC(=O)NCc1cc(OC)cc(-c2ccc(C(F)(F)F)cc2)c1)S(=O)(=O)c1ccc(F)cc1 is strictly less than 100 nM?
Given back: YES

Asked: Would you kindly verify if IC50 of CN(CC(=O)NCc1ccc(F)c(-c2ccc(C(F)(F)F)cc2)c1)S(=O)(=O)c1ccc(F)cc1 is strictly less than 100 nM?
Given back: NO

Asked: Would you kindly verify if IC50 of CC(C)N(CC(=O)NCc1cc(-c2ccc(C(F)(F)F)nc2)ccn1)S(=O)(=O)c1ccc(F)cc1 is strictly less than 100 nM?
Given back: NO
